Assay: in vitro
Settings: human
endpoint: CC50 at 3 days

Prompt line: For the compound CCOC(=O)c1ccc(OCCC2CCN(c3ccc(C)nn3)CC2)cc1 [Pirodavir, pirodavir, reference compound] , what CC50 at 3 days is on record?
Response line: > 100 µM

* * *

Tested on: MT-4 cells
Assay: Cytotoxicity in MT-4 cells (MTS/PES)
Format: cell-based
Details: 50% reduction in cell viability, 5 days
CC50 values for the compounds below.

Prompt line: For the compound O=C(CCOCC(COCCC(=O)NC(Cc1c(CCCCCNC(=O)Nc2cc(C(=O)O)cc(C(=O)O)c2)[nH]c2ccccc12)C(=O)O)(COCCC(=O)NC(Cc1c(CCCCCNC(=O)Nc2cc(C(=O)O)cc(C(=O)O)c2)[nH]c2ccccc12)C(=O)O)COCCC(=O)NC(Cc1c(CCCCCNC(=O)Nc2cc(C(=O)O)cc(C(=O)O)c2)[nH]c2ccccc12)C(=O)O)NC(Cc1c(CCCCCNC(=O)Nc2cc(C(=O)O)cc(C(=O)O)c2)[nH]c2ccccc12)C(=O)O (stereo not drawn) [Compound 24] , what CC50 is on record?
Response line: 30.9 µM

Prompt line: For the compound O=C(O)CCCCCCc1[nH]c2ccccc2c1C[C@H](NC(=O)CCOCC(COCCC(=O)N[C@@H](Cc1c(CCCCCCC(=O)O)[nH]c2ccccc12)C(=O)O)(COCCC(=O)N[C@H](Cc1c(CCCCCCC(=O)O)[nH]c2ccccc12)C(=O)O)COCCC(=O)N[C@H](Cc1c(CCCCCCC(=O)O)[nH]c2ccccc12)C(=O)O)C(=O)O [Compound 33] , what CC50 is on record?
Response line: > 50 µM

Prompt line: For the compound O=C(CCOCC(COCCC(=O)NCCNC(=O)Nc1cc(C(=O)O)cc(C(=O)O)c1)(COCCC(=O)NCCNC(=O)Nc1cc(C(=O)O)cc(C(=O)O)c1)COCCC(=O)NCCNC(=O)Nc1cc(C(=O)O)cc(C(=O)O)c1)NCCNC(=O)Nc1cc(C(=O)O)cc(C(=O)O)c1 [Compound 40] , what CC50 is on record?
Response line: > 50 µM
